Readings of Emax for the listed molecules
measured-on: human MC4-R (Homo sapiens)
Construct: expressed in transfected cells; host or cells: HEK293 T-REx (tetracycline-regulated, Invitrogen); cell line from Palatin Technologies with license from the University of Michigan
Sequence (P32245 whole entry): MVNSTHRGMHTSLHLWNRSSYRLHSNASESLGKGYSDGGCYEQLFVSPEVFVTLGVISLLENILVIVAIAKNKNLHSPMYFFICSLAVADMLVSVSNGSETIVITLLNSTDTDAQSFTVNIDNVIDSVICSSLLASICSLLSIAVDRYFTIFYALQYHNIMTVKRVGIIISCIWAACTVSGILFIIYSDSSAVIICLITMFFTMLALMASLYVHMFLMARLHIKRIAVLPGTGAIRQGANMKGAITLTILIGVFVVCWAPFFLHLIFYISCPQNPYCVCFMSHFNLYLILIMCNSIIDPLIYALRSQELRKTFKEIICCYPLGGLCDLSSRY
measurement-notes: cAMP functional assay in HEK-293 T-REx cells expressing human MC4-R, induced with doxycycline 0.1 ng/mL (low density)
Type: cell-based
condition-summary: HEK293-T-REx; maximal cAMP stimulation, NDP-α-MSH = 100%; doxycycline 0.1 ng/mL; averages of all comparable assays; read-out: Emax
Bridge positions count the residues as written; N and C are the ends. Square brackets hold non-standard residues; d marks the D form. Peptide text beside a SMILES is read from it. * marks the point of attachment. Orn = NCCC[C@H](N)C(=O)O; Bn = c1ccc(C*)cc1

molecule	measurement-unit	Emax
CC(=O)N[C@@H](CCCNC(=N)N)C(=O)N[C@H]1CCC(=O)NCCC[C@@H](C(N)=O)NC(=O)[C@H](Cc2c[nH]c3ccccc23)NC(=O)[C@H](CCCNC(=N)N)NC(=O)[C@@H](Cc2ccccc2)NC(=O)[C@H](Cc2c[nH]cn2)NC1=O [No. 4] (Ac-REH[dF]RW[Orn]-NH2; lactam 2-7)	%	83
CC(=O)N[C@@H](CCCNC(=N)N)C(=O)N[C@H]1CCCNC(=O)CC[C@@H](C(=O)O)NC(=O)[C@H](Cc2c[nH]c3ccccc23)NC(=O)[C@H](CCCNC(=N)N)NC(=O)[C@@H](Cc2ccccc2)NC(=O)[C@H](COCc2ccccc2)NC1=O [No. 48] (Ac-R[Orn]S(Bn)[dF]RWE-OH; lactam 2-7)	%	50
CCCC[C@H](NC(C)=O)C(=O)N[C@H]1CCC(=O)NCCC[C@@H](C(N)=O)NC(=O)[C@H](Cc2c[nH]c3ccccc23)NC(=O)[C@H](CCCNC(=N)N)NC(=O)[C@@H](Cc2ccccc2)NC(=O)[C@H](Cc2c[nH]cn2)NC1=O [No. 2]	%	93
CC(=O)N[C@@H](CCCCN)C(=O)N[C@H]1CC(=O)NCCCC[C@@H](C(N)=O)NC(=O)[C@H](Cc2c[nH]c3ccccc23)NC(=O)[C@H](CCCNC(=N)N)NC(=O)[C@@H](Cc2ccccc2)NC(=O)[C@H](Cc2c[nH]cn2)NC1=O [reference compound] (Ac-KDH[dF]RWK-NH2; lactam 2-7)	%	85
CC(=O)N[C@@H](CCCNC(=N)N)C(=O)N[C@H]1CCCNC(=O)CC[C@@H](C(N)=O)NC(=O)[C@H](Cc2c[nH]c3ccccc23)NC(=O)[C@H](CCCNC(=N)N)NC(=O)[C@@H](Cc2ccccc2)NC(=O)[C@H](CC(N)=O)NC1=O [No. 46]	%	88
CC(=O)N[C@@H](CCCNC(=N)N)C(=O)N[C@H]1CCC(=O)NCCC[C@@H](C(N)=O)NC(=O)[C@H](Cc2c[nH]c3ccccc23)NC(=O)[C@H](CCCNC(=N)N)NC(=O)[C@@H](Cc2ccccc2)NC(=O)[C@@H]2C[C@@H](O)CN2C1=O [No. 14]	%	104
CC(=O)N[C@@H](CCCNC(=N)N)C(=O)N[C@H]1CCC(=O)NCCC[C@@H](C(N)=O)NC(=O)[C@H](Cc2c[nH]c3ccccc23)NC(=O)[C@H](CCCNC(=N)N)NC(=O)[C@@H](Cc2ccccc2)NC(=O)[C@H](CCC(N)=O)NC1=O [No. 12]	%	96
